Source of measurements: patent US7981875B2

Test system: J82
Assay: MTT test, overall cell growth
Type: cell-based, human
Settings: J82, MTT, 72 hours of incubation; read-out: IC50 value
pIC50: −log10 of the molar value.
measuredQuantity: pIC50

Previously resolved entries follow.
compound	testedOn	measuredQuantity	val
CC1CC2(N=CCS2)C2(O)OC3CC4(CO)C(CCC5C4CCC4(C)C(C6=CC(=O)OC6)CCC54O)CC3OC2O1 (stereo not drawn)	J82	pIC50	5.00 to 5.30
CC1CC2(NC(CC(=O)c3ccccc3)CS2)C2(O)OC3CC4(CO)C(CCC5C4CCC4(C)C(C6=CC(=O)OC6)CCC54O)CC3OC2O1 (single isomer, unassigned) [Compound H]	J82	pIC50	5.30 to 6.00

Next, consider the following compound.
Give pIC50 for the following compound: CC1CC2(NC(CC(=O)c3ccccc3)CS2)C2(O)OC3CC4(CO)C(CCC5C4CCC4(C)C(C6=CC(=O)OC6)CCC54O)CC3OC2O1 (single isomer, unassigned) [Compound I]
5.30 to 6.00
